Measured IC50 by item
Molecular target: MMP-13CD (catalytic domain of collagenase-3) (Homo sapiens)
Test: Thiopeptolide substrate hydrolysis inhibition assay, MMP-13CD
Format: biochemical
Conditions: Table I; thiopeptolide substrate, HEPES pH 7.0, 22° C.; read-out: MMP-13CD IC50

{"molecule": "Cn1c(=O)n(CCN2C(=O)c3ccccc3C2=O)c(=O)c2cc(C(=O)OCc3ccccc3)sc21 [Example 112]", "valueUnit": "nM", "IC50": 2900}
{"molecule": "COCN1C(=O)c2ccc(Cn3c(=O)c4cc(C(=O)NCc5ccc(OC)cc5)sc4n(C)c3=O)cc2S1(=O)=O [Example 229]", "valueUnit": "nM", "IC50": 680}
{"molecule": "CSc1ccc(COC(=O)c2cc3c(=O)n(Cc4ccccc4)c(=O)n(C)c3s2)cc1 [Example 202]", "valueUnit": "nM", "IC50": 360}
{"molecule": "COc1cccc(CNC(=O)c2cc3c(=O)n(Cc4ccc(OC(F)(F)F)cc4)c(=O)n(C)c3s2)c1 [Example 83]", "valueUnit": "nM", "IC50": 140}

---

Target: MMP-14CD (catalytic domain of MMP-14) (Homo sapiens, UniProt P50281)

{"compound": "COc1ccc(CNC(=O)c2cc3c(=O)n(Cc4cccc(OC)c4)c(=O)n(C)c3s2)cc1 [Example 63]", "testedTarget": "MMP-14CD (catalytic domain of MMP-14) (Homo sapiens, UniProt P50281)", "IC50 [µM]": 30}
{"compound": "COc1cccc(CNC(=O)c2cc3c(=O)n(CCS(=O)(=O)c4ccc(Cl)cc4)c(=O)n(C)c3s2)c1 [Example 246]", "testedTarget": "MMP-14CD (catalytic domain of MMP-14) (Homo sapiens, UniProt P50281)", "IC50 [µM]": 36}
{"compound": "CCCCNC(=O)NS(=O)(=O)c1ccc(Cn2c(=O)c3cc(C(=O)NCc4cccc(OC)c4)sc3n(C)c2=O)cc1 [Example 231a]", "testedTarget": "MMP-14CD (catalytic domain of MMP-14) (Homo sapiens, UniProt P50281)", "IC50 [µM]": 30}
{"compound": "COc1ccc(CNC(=O)c2cc3c(=O)n(CCOc4ccc(Br)cc4)c(=O)n(C)c3s2)cc1 [Example 232]", "testedTarget": "MMP-14CD (catalytic domain of MMP-14) (Homo sapiens, UniProt P50281)", "IC50 [µM]": 30}
{"compound": "COc1ccc(CNC(=O)c2cc3c(=O)n(Cc4ccc([N+](=O)[O-])nc4)c(=O)n(C)c3s2)cc1 [Example 369]", "testedTarget": "MMP-14CD (catalytic domain of MMP-14) (Homo sapiens, UniProt P50281)", "IC50 [µM]": 30}
{"compound": "COC(=O)c1ccc(Cn2c(=O)c3cc(C(N)=O)sc3n(C)c2=O)cc1C [Example 249a]", "testedTarget": "MMP-14CD (catalytic domain of MMP-14) (Homo sapiens, UniProt P50281)", "IC50 [µM]": 30}
{"compound": "COC(=O)c1ccc(Cn2c(=O)c3cc(C(=O)NCc4ccc(OC)cc4)sc3n(C)c2=O)cc1OC [Example 228]", "testedTarget": "MMP-14CD (catalytic domain of MMP-14) (Homo sapiens, UniProt P50281)", "IC50 [µM]": 30}
{"compound": "COc1cccc(CNC(=O)c2cc3c(=O)n(Cc4ccc(S(=O)(=O)N5CCC(C)CC5)cc4)c(=O)n(C)c3s2)c1 [Example 47]", "testedTarget": "MMP-14CD (catalytic domain of MMP-14) (Homo sapiens, UniProt P50281)", "IC50 [µM]": 10}

---

The following compounds are listed with their measured log10 of IC50 values.
Target: MMP-13CD (catalytic domain of collagenase-3) (Homo sapiens)
Experiment: Thiopeptolide substrate hydrolysis inhibition assay, MMP-13CD
Assay type: biochemical
Details: Table I; thiopeptolide substrate, HEPES pH 7.0, 22° C.; read-out: MMP-13CD IC50
readoutLabel: log10 of IC50 (log10 of the value in nM)

{"compound": "Cn1c(=O)n(CCOc2ccccc2)c(=O)c2cc(C(=O)OCc3ccccc3)sc21 [Example 132]", "testedTarget": "MMP-13CD (catalytic domain of collagenase-3) (Homo sapiens)", "result": 1.87}
{"compound": "C=C(Cn1c(=O)c2cc(C(=O)OCc3ccccc3)sc2n(C)c1=O)C(=O)O [Example 115]", "testedTarget": "MMP-13CD (catalytic domain of collagenase-3) (Homo sapiens)", "result": 2.52}
{"compound": "O=C(OCc1ccncc1)c1cc2c(=O)n(Cc3ccc(Br)cc3)c(=O)[nH]c2s1", "testedTarget": "MMP-13CD (catalytic domain of collagenase-3) (Homo sapiens)", "result": 2.41}
{"compound": "Cn1c(=O)n(Cc2nc(N)nc(Nc3ccccc3)n2)c(=O)c2cc(C(=O)OCc3ccccc3)sc21", "testedTarget": "MMP-13CD (catalytic domain of collagenase-3) (Homo sapiens)", "result": 2.72}
{"compound": "COC(=O)c1ccc(Cn2c(=O)c3cc(C(N)=O)sc3n(C)c2=O)cc1C [Example 249a]", "testedTarget": "MMP-13CD (catalytic domain of collagenase-3) (Homo sapiens)", "result": 2.81}
{"compound": "CCN(CC)CC(C)OC(=O)c1cc2c(=O)n(Cc3ccccc3)c(=O)n(C)c2s1 (stereo not drawn)", "testedTarget": "MMP-13CD (catalytic domain of collagenase-3) (Homo sapiens)", "result": 4.00}
{"compound": "Cn1c(=O)n(Cc2ccc(C(F)(F)F)cc2C(F)(F)F)c(=O)c2cc(C(=O)OCc3ccccc3)sc21", "testedTarget": "MMP-13CD (catalytic domain of collagenase-3) (Homo sapiens)", "result": 3.51}
{"compound": "COc1cccc(CNC(=O)c2cc3c(=O)n(Cc4ccc(I)cc4)c(=O)n(C)c3s2)c1", "testedTarget": "MMP-13CD (catalytic domain of collagenase-3) (Homo sapiens)", "result": 1.65}

---

Target: MMP-13CD (catalytic domain of collagenase-3) (Homo sapiens, UniProt P45452)
Experiment: Thiopeptolide substrate hydrolysis inhibition assay, MMP-13CD
Assay type: biochemical
Conditions: Table I; thiopeptolide substrate, HEPES pH 7.0, 22° C.; read-out: MMP-13CD IC50
readoutLabel: log10(IC50) (log10 of the value in nM)

{"compound": "Cn1c(=O)n(Cc2ccccc2)c(=O)c2cc(C(=O)NCc3cccc(Cl)c3)sc21", "log10(IC50)": 3.00}
{"compound": "Cn1c(=O)n(Cc2ccccc2)c(=O)c2cc(C(=O)NCCc3c[nH]c4ccccc34)sc21", "log10(IC50)": 3.30}
{"compound": "COc1cc(CNC(=O)c2cc3c(=O)n(Cc4ccc([N+](=O)[O-])nc4)c(=O)n(C)c3s2)ccn1", "log10(IC50)": 3.07}
{"compound": "Cn1c(=O)n(Cc2ccccc2C#N)c(=O)c2cc(C(=O)OCc3ccccc3)sc21", "log10(IC50)": 3.65}
{"compound": "COC(=O)Nc1cc(Cn2c(=O)c3cc(C(=O)NCc4cccc(OC)c4)sc3n(C)c2=O)on1", "log10(IC50)": 2.69}
{"compound": "Cn1c(=O)n(Cc2ccccc2)c(=O)c2cc(C(=O)NCc3ccc(Cl)c(Cl)c3)sc21", "log10(IC50)": 3.00}
{"compound": "Cn1c(=O)n(Cc2ccc(C(=O)O)cc2)c(=O)c2cc(C(=O)NCc3cccc(OC(F)F)c3)sc21", "log10(IC50)": 0.82}
{"compound": "Cn1c(=O)n(Cc2ccccc2C(F)(F)F)c(=O)c2cc(C(=O)OCc3ccccc3)sc21", "log10(IC50)": 2.40}
{"compound": "Cn1c(=O)n(Cc2ccccc2)c(=O)c2cc(C(=O)OCCCc3cccnc3)sc21", "log10(IC50)": 4.84}
{"compound": "COc1cccc(CNC(=O)c2cc3c(=O)n(Cc4ccc(C5(C(=O)OC(C)(C)C)CC5)cc4)c(=O)n(C)c3s2)c1", "log10(IC50)": 2.05}
{"compound": "Cn1c(=O)n(Cc2ccccc2)c(=O)c2cc(C(=O)OCc3c(F)cccc3F)sc21", "log10(IC50)": 4.20}
{"compound": "Cn1c(=O)n(Cc2ccccc2)c(=O)c2cc(C(=O)OCc3cccc(Cl)c3)sc21", "log10(IC50)": 1.83}
{"compound": "CCC(CC)n1c(=O)c2cc(C(=O)NCc3cccc(OC)c3)sc2n(C)c1=O", "log10(IC50)": 4.18}
{"compound": "COc1cccc(CNC(=O)c2cc3c(=O)n(CCc4cccc5ccccc45)c(=O)n(C)c3s2)c1", "log10(IC50)": 4.48}
{"compound": "Cn1c(=O)n(Cc2ccc(C(=O)O)cc2)c(=O)c2cc(C(=O)NCc3ccc(S(N)(=O)=O)cc3)sc21", "log10(IC50)": 3.30}
{"compound": "COc1ccc(CNC(=O)c2cc3c(=O)n(Cc4ccc(S(=O)(=O)N(C)C)cc4)c(=O)n(C)c3s2)cc1", "log10(IC50)": 1.73}
{"compound": "COc1cccc(CNC(=O)c2cc3c(=O)n(CCOc4ccc(Br)cc4)c(=O)n(C)c3s2)c1 [Example 295]", "log10(IC50)": 2.36}
{"compound": "C=CCn1c(=O)c2cc(C(=O)OCc3ccccc3)sc2n(C)c1=O", "log10(IC50)": 2.20}
{"compound": "Cn1c(=O)n(CCc2ccccc2)c(=O)c2cc(C(=O)OCc3ccccc3)sc21", "log10(IC50)": 3.04}
{"compound": "CC(C)Cn1c(=O)c2cc(C(=O)OCc3ccccc3)sc2n(C)c1=O", "log10(IC50)": 1.93}
{"compound": "COc1cccc(CNC(=O)c2cc3c(=O)n(Cc4ccc(OC(C)(C)C(=O)O)cc4)c(=O)n(C)c3s2)c1", "log10(IC50)": 1.27}
{"compound": "COc1ccc(Br)cc1COC(=O)c1cc2c(=O)n(Cc3ccccc3)c(=O)n(C)c2s1", "log10(IC50)": 4.48}
{"compound": "CCC#CCn1c(=O)c2cc(C(=O)NCc3ccc(OC)cc3)sc2n(C)c1=O", "log10(IC50)": 1.58}
{"compound": "Cn1c(=O)n(Cc2ccc(C(F)(F)F)cc2)c(=O)c2cc(C(=O)OCc3ccccc3)sc21", "log10(IC50)": 2.77}
{"compound": "Cn1c(=O)n(CCN2C(=O)c3ccccc3C2=O)c(=O)c2cc(C(=O)OCc3ccccc3)sc21 [Example 113]", "log10(IC50)": 3.46}
{"compound": "COc1ccc(CNC(=O)c2cc3c(=O)n(CCOc4ccc(Br)cc4)c(=O)n(C)c3s2)cc1 [Example 232]", "log10(IC50)": 2.24}

Cited source: patent US20030004172A1
